Assignment: determine reported max response for the given molecules.
- PROCEDURE DETAILS: qHTS Assay for Lipid Storage Modulators (AID 1519)
- REPORTED CONDITIONS: Drosophila S3 cells, BODIPY lipid droplet/cell ratio, laser cytometry; measured here: cell count channel max response; cells loaded with oleic acid
- Method: NIH Molecular Libraries Probe Production Centers Network [MLPCN] NIH Chemical Genomics Center [NCGC] Assay Submitter (PI): Beller, Mathias; Max-Planck-Institut fur Biophysikalische Chemie […] We dispensed 4 uL of cells at 1.25 x 10^6 cells/mL into LoBase Aurora COC 1,536-well plates (black walled, clear bottom) with a bottle-valve solenoid-based dispenser (Aurora) to obtain 5,000 cells/well. […] The ratio of the total intensity in PMT channel 1 over total intensity of channel 3 was also calculated. […]
Records with an inconclusive call do not appear.
Could you give me the number in %? Just the number is fine.

Recorded max response for `CC(C)NC(=O)N1CC[C@@]2(CCCN(C(=O)c3cc(C(F)(F)F)cc(C(F)(F)F)c3)C2)C1` , please?
19.4

What value of measured max response is listed for `CN(C)Cc1ccccc1-c1cncnc1Nc1ccccc1` ?
18.6

Fill blank: measured max response of the molecule `N#Cc1cccc(NC(=O)N2CC[C@@]3(CCCNC3)C2)c1` is ____.
-6.65

# lookup: max response of `CN1CCN(c2ncnc3ccc(-c4ccc5c(c4)OCO5)cc23)CC1`
4.86

Need max response of `O=C(c1csnn1)N1CCC[C@@]2(CCN(c3ncccn3)C2)C1` , thanks.
8.99

Given the molecule `COCCn1c(=O)c(-c2cccc(C#N)c2)nc2cnc(Oc3ccccc3)nc21` , what is its reported max response?
-1.86

# max response lookup, item `Cc1cccc(CNc2ccnc(-c3ccoc3)n2)c1`
1.7

These measurements were taken from PubChem BioAssay (NCATS).
